Sourced from the supplement of paper PMC6757056

B1: library; a variant is named by its letters at N, in order (parent)
chain: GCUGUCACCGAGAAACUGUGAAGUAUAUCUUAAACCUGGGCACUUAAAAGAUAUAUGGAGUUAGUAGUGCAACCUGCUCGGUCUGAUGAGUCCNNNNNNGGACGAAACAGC

Variants of: B1
Experiment: normalized RNA/DNA level without ligand (relative to sTRSVctl = 100) (log10 (% of sTRSVctl)); HEK293T; ligand: cyclic di-GMP (c-di-GMP-II aptamer); higher = less ribozyme self-cleavage, higher mRNA level
Settings: reporter: mCherry (pCS4076), ligand present: no
measurement-name: normalized RNA/DNA level without ligand (log10)

- CCUCCC: 1.81
- GUAAUA: 1.59
- CGCAAA: 1.26
- CCGACA: 1.56
- UCACUC: 1.73
- CGUGUG: 1.68
- UAAGAA: 1.6
- UCCUAA: 1.63
- GGUUCG: 1.7
- CUUAGA: 1.61
- GAAUUG: 1.57
- AAACUU: 1.65
- UCCAUG: 1.67
- UACGGU: 1.6
- CAUUCG: 1.83
- CUAAAU: 1.5
- UUCGAU: 1.69
- UAAUUC: 1.73
- GCUUGG: 1.59
- AUUGGA: 1.45
- UGCUCA: 1.76
- UAGCUA: 1.71
